pIC50: −log10 of the molar value.
Quick record: pIC50, UniProt P08581.
Sequence (P08581 969-1390 limits assumed): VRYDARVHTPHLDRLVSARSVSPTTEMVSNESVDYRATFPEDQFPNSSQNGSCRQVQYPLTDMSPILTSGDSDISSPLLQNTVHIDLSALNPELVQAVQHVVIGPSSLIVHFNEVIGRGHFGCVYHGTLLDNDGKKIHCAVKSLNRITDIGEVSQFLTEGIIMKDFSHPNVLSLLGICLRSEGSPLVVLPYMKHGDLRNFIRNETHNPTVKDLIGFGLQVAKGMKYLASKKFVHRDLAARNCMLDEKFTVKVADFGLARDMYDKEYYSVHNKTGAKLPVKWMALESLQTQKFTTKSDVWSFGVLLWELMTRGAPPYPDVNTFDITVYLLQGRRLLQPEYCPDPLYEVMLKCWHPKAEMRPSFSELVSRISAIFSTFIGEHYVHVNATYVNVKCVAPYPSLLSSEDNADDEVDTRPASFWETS

Consider the reported pIC50 for these compounds:
O=c1n(-c2cccc(Cl)c2)c2cnc3ccc(Br)cc3c2n1-c1ccccc1Cl [Example 102]; 5.70 to 6.00
CCn1c(=O)n(-c2ccccc2Cl)c2c3cc(Cl)ccc3ncc21 [Example 108]; 6.00 to 6.30
O=c1[nH]c2cnc3ccc(Cl)cc3c2n1-c1ccccc1Cl [Example 92]; 6.00 to 6.30

Please state pIC50 for every compound in the list that follows.
1. Cn1c(=O)n(-c2ccccc2Cl)c2c3cc(Br)ccc3ncc21 [Example 104]
2. CCc1ccc2ncc3ncn(-c4ccccc4F)c3c2c1 [Example 50]
3. CC(C)n1c(=O)n(-c2ccccc2Cl)c2c3cc(Br)ccc3ncc21 [Example 114]
4. N#Cc1nc2cnc3ccc(Cl)cc3c2n1-c1ccccc1Cl [Example 84]

-- reply
≥ 6.30
≥ 6.30
6.00 to 6.30
≥ 6.30

-- ask Sample O=c1[nH]c2cnc3ccc(Br)cc3c2n1-c1ccccc1Cl [Example 93] — what was its pIC50?
-- reply ≥ 6.30

---

Assignment: determine reported IC50 for the given molecules.
- TESTED_SYSTEM: PKB/Akt (Homo sapiens, UniProt P31749)
- Sequence (P31749 whole entry): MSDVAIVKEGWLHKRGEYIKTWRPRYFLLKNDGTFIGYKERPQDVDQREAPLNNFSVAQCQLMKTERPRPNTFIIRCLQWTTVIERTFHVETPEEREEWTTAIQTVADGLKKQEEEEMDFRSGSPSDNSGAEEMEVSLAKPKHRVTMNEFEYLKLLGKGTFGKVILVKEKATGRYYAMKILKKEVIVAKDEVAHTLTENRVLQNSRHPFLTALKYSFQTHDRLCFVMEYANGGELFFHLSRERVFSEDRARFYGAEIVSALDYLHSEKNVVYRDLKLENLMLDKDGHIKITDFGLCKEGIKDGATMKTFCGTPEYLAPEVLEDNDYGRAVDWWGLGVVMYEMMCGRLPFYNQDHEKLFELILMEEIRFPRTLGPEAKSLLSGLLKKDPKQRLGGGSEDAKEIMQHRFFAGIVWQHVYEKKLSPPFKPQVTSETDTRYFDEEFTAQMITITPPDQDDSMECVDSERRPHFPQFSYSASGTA
- EXPERIMENT_SUMMARY: Inhibition of PKB/Akt in vitro
- CONDITIONS_USED: PDK1-activated GST-PKB, LRRPRTRSFS peptide, 20 μM ATP; read-out: IC50 range class, inhibition of PKB/Akt in vitro

Fc1ccccc1-n1cnc2cnc3ccc(-c4ccccc4)cc3c21 [Example 54]; 1000 to 2000 nM

As a next step, examine the molecule that follows.
-- ask Sample COc1ccc(-c2ccc3ncc4ncn(-c5ccccc5Cl)c4c3c2)cc1 [Example 137] — what was its IC50?
-- reply 1000 to 2000 nM

---

- TESTED_SYSTEM: Kdr (Homo sapiens)
- Construct: The kinase domain of KDR is expressed as GST-fusion protein using the baculovirus system
- Sequence (P35968 834-1162 limits assumed): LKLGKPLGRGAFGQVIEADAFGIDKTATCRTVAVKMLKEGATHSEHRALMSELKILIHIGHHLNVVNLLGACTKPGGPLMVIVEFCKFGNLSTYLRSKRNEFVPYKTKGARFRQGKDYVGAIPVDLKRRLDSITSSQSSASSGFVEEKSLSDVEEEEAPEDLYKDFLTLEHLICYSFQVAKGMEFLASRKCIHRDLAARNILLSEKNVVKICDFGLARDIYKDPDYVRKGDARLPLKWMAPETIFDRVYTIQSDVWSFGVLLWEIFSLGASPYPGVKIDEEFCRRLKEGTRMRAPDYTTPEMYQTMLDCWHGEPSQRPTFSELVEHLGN
- EXPERIMENT_SUMMARY: Inhibition of KDR protein tyrosine kinase in vitro
- CONDITIONS_USED: GST-fused KDR kinase domain, polyGluTyr(4:1), 8 μM ATP; read-out: IC50 range class, inhibition of Kdr in vitro
pIC50: −log10 of the molar value.
Assignment: determine reported pIC50 for the given molecules.

Please state pIC50 for every molecule in the list that follows.
1. Nc1cccc(-n2cnc3cnc4ccc(-c5ccccc5)cc4c32)c1
2. CCn1c(=O)n(-c2ccccc2Cl)c2c3cc(Br)ccc3ncc21
3. CC(C)n1c(=O)n(-c2ccccc2Cl)c2c3cc(Br)ccc3ncc21
4. COc1ccc2ncc3ncn(-c4ccccc4)c3c2c1
5. COc1cccc(-c2ccc3ncc4ncn(-c5ccccc5Cl)c4c3c2)c1
6. OCc1cccc(-n2cnc3cnc4ccc(-c5ccccc5)cc4c32)c1
7. CCn1c(=O)n(-c2ccccc2Cl)c2c3cc(Cl)ccc3ncc21

-- reply
["≥ 6.30", "5.70 to 6.00", "≥ 6.30", "5.70 to 6.00", "≥ 6.30", "≥ 6.30", "≥ 6.30"]

-- ask Sample `O=c1[nH]c2cnc3ccc(Br)cc3c2n1-c1ccccc1Cl` — what was its pIC50?
-- reply 6.00 to 6.30
